Entry source: patent EP4635969A1

# Tested on: IL-17
# assay.explanation: Psoriasis experiment (imiquimod model): inflammatory cytokine in serum (ELISA)
# Format: in vivo, mice
# applied.conditions: serum, day 8 of modeling; 0.2 g cream per mouse daily for 7 days
Reported IL-17 values for the following compounds.
Numeric only. Scale: pg/mL

C[C@]12C=CC(=O)C=C1[C@@H](F)C[C@H]1[C@@H]3C[C@H]4OC(c5ccc(CSC6CCOC6=O)cc5)O[C@@]4(C(=O)CO)[C@@]3(C)C[C@H](O)[C@@]12F (stereo partly shown) [Compound 8]    53.35
C[C@]12C=CC(=O)C=C1CC[C@H]1[C@@H]3C[C@H]4OC(c5ccc(CSC6CCOC6=O)cc5)O[C@@]4(C(=O)CO)[C@@]3(C)C[C@H](O)[C@@]12F (stereo partly shown) [Compound 17]    31.30
C[C@]12C=CC(=O)C=C1CC[C@H]1[C@@H]3C[C@H]4OC(c5ccc(CSC6CCOC6=O)cc5)O[C@@]4(C(=O)CO)[C@@]3(C)C[C@H](O)[C@@]12Cl (stereo partly shown) [Compound 23]    19.56

get_value(item= CCC(=O)O[C@]1(C(=O)SCF)[C@H](C)C[C@H]2[C@@H]3C[C@H](F)C4=CC(=O)C=C[C@]4(C)[C@@]3(F)[C@@H](O)C[C@@]21C [Fluticasone propionate, reference compound] , readout=IL-17) returns 25.04
